Assay: NCI Yeast Anticancer Drug Screen. Data for the mlh1 rad18 strain (AID 175)
Conditions: S. cerevisiae mlh1 rad18 strain growth inhibition; at 50.0 µM
This is part of a sample that, as a whole, favours compounds with a hit. Of some 79,000 tested, about 15% had one in any assay. Calls of active or inactive are those of the source. Cut-off read from the data, not from the text of the source: active = growth inhibition above about 70%; inactive = the rest.
Labels: 1 for active, -1 for inactive

{"COMPOUND": "CC(CO)(CO)C(=O)O", "GROUP_LABEL": -1}
{"COMPOUND": "CCOC(=O)C1(N)CCCCC1", "GROUP_LABEL": -1}
{"COMPOUND": "CC(=O)c1cccc(N(C)S(=O)(=O)c2ccc(C)cc2)c1", "GROUP_LABEL": -1}
{"COMPOUND": "CCOC(=O)c1cc(Cl)c(O)c(Cl)c1", "GROUP_LABEL": -1}
{"COMPOUND": "COC1OC(C(O)C(O)CO)C(O)C(O)C1O (configuration not stated)", "GROUP_LABEL": -1}
{"COMPOUND": "c1cc(CNCCNCc2ccncc2)ccn1", "GROUP_LABEL": -1}
{"COMPOUND": "C=CC1=NC(C)(C)CC(C)O1 (configuration not stated)", "GROUP_LABEL": -1}
{"COMPOUND": "O=C(O)c1cc(I)ccc1O", "GROUP_LABEL": -1}
{"COMPOUND": "O=S(Cc1ccccc1)/C(=C/NC(=S)Nc1ccccc1)c1ccccc1 (configuration not stated)", "GROUP_LABEL": -1}
{"COMPOUND": "O=C(NCc1ccccc1)c1cccc([N+](=O)[O-])c1", "GROUP_LABEL": -1}
{"COMPOUND": "NNC(=O)c1ccccc1N", "GROUP_LABEL": -1}
{"COMPOUND": "CCCCCCCCCCCCCCCCCCSC(=N)N", "GROUP_LABEL": -1}
{"COMPOUND": "O=C(O)Cc1cccc2ccccc12", "GROUP_LABEL": -1}
{"COMPOUND": "Cc1ccc(N2C(=O)c3cccc4c(N)c(S(=O)(=O)O)cc(c34)C2=O)cc1", "GROUP_LABEL": -1}
{"COMPOUND": "CC1CC2C3CCC4=CC(=O)CCC4(C)C3CCC2(C)C1(O)C(=O)CO (configuration not stated)", "GROUP_LABEL": -1}
{"COMPOUND": "Cc1ccccc1NC(=O)Oc1ccc(Cl)cc1C(=O)c1ccccc1", "GROUP_LABEL": -1}
{"COMPOUND": "CC(C)N(C(=O)c1ccccc1)C(C)C", "GROUP_LABEL": -1}
{"COMPOUND": "COc1cccc(N=CNc2cccc(OC)c2)c1", "GROUP_LABEL": -1}
{"COMPOUND": "CCOC(=O)c1ccc(NC(C)=O)o1", "GROUP_LABEL": -1}
{"COMPOUND": "O=C(NCc1ccco1)Nc1cccc2c(NC(=O)NCc3ccco3)cccc12", "GROUP_LABEL": -1}
{"COMPOUND": "C/C(O)=C(/C=N\\C(=S)Nc1ccc(S(=O)(=O)Nc2nccs2)cc1)C(=O)Nc1ccccc1C", "GROUP_LABEL": -1}
{"COMPOUND": "NC(=O)c1cc2c3ccccc3ccn2c1-c1ccccc1", "GROUP_LABEL": -1}
{"COMPOUND": "C=CC(C)(C)n1cc(C2=C(O)C(=O)C(c3cn(C(C)(C)C=C)c4ccccc34)=C(O)C2=O)c2ccccc21", "GROUP_LABEL": -1}
{"COMPOUND": "C=COC(=O)CCOCC(CC)CCCC (configuration not stated)", "GROUP_LABEL": -1}
{"COMPOUND": "C/C(O)=C(/C=N/C(=S)Nc1ccccc1)C(=O)Nc1ccccc1C", "GROUP_LABEL": -1}
{"COMPOUND": "N#Cc1ccc(OC(=O)Nc2cc(Cl)cc(Cl)c2)cc1", "GROUP_LABEL": -1}
{"COMPOUND": "C=CCN1CCCC1=O", "GROUP_LABEL": -1}
{"COMPOUND": "CC1(c2ccccc2)CO1 (configuration not stated)", "GROUP_LABEL": -1}
{"COMPOUND": "CCN(C(C)=O)c1ccc([N+](=O)[O-])cc1", "GROUP_LABEL": -1}
{"COMPOUND": "Cc1ccc2nc(N)nnc2c1", "GROUP_LABEL": -1}
{"COMPOUND": "C=C1CC2(OC1=O)C(=O)N(C)c1ccc(I)cc12 (configuration not stated)", "GROUP_LABEL": 1}
{"COMPOUND": "CCCNS(=O)(=O)c1ccc(Cl)cc1", "GROUP_LABEL": -1}

###

Experiment: NCI Yeast Anticancer Drug Screen. Data for the rad50 strain (AID 155);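 note: 0% = growth of vehicle-only cultures of the same strain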
Conditions: S. cerevisiae rad50 strain growth inhibition; at 50.0 µM; stronger effect = higher value
This is part of a sample that, as a whole, favours compounds with a hit. Of some 79,000 tested, about 15% had one in any assay.
This listing pairs compounds with measured growth inhibition.

{"COMPOUND": "CCCCCCCCCCCCCCCCCC(=O)NCCNC(=O)CCCCCCCCCCCCCCCCC", "growth inhibition, %": -5.7}
{"COMPOUND": "O=C1C=Cc2ccccc2/C1=C/c1[nH]c(=O)[nH]c1O", "growth inhibition, %": -21.1}
{"COMPOUND": "O=c1n(CC2CO2)c(=O)n(CC2CO2)n1CC1CO1 (centres undefined)", "growth inhibition, %": 16.9}
{"COMPOUND": "Cc1cc2nc(C)c(C)nc2cc1C", "growth inhibition, %": -20.5}
{"COMPOUND": "Nc1c(O)c(S(=O)(=O)O)c(O)c2c1C(=O)c1ccccc1C2=O", "growth inhibition, %": 27.4}
{"COMPOUND": "Nc1cccc2cccc(O)c12", "growth inhibition, %": 40.1}
{"COMPOUND": "CCOc1ccccc1NC(=O)CCl", "growth inhibition, %": 16.4}
{"COMPOUND": "Cc1c(-c2ccc(C3CCCCC3)cc2)nc2ccc(F)cc2c1C(=O)O", "growth inhibition, %": 15.3}
{"COMPOUND": "Cc1cc(CC(=O)NCCO)n(CCO)c(=O)c1", "growth inhibition, %": -7.85}
{"COMPOUND": "Nc1cc2ccccc2c(O)c1O", "growth inhibition, %": 32.1}
{"COMPOUND": "Cc1ccc2[nH]c3ccccc3c2c1", "growth inhibition, %": 26.1}
{"COMPOUND": "Cc1ccc(NC(=S)N2CCOCC2)cc1C", "growth inhibition, %": 0.55}
{"COMPOUND": "NC(=S)c1c(N)n(C2OC(CO)C(O)C2O)c2ncnc(N)c12 (centres undefined)", "growth inhibition, %": 7.2}
{"COMPOUND": "COc1cc(-c2ccc(NC(=O)CC(C)=O)c(OC)c2)ccc1NC(=O)CC(C)=O", "growth inhibition, %": -17.8}

###

Test: NCI Yeast Anticancer Drug Screen. Data for the cln2 rad14 strain (AID 165);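 note: 0% = growth equal to vehicle treated cultures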
Details: S. cerevisiae cln2 rad14 strain, at 50.0 µM, stronger effect = higher value
About 79,000 compounds went through this panel and 15% of them were active in at least one assay; those are over-represented in the sample as a whole.
This listing pairs compounds with measured growth inhibition.

{"COMPOUND": "S=C(NCc1ccccc1)N1CCC(CCCC2CCN(C(=S)NCc3ccccc3)CC2)CC1", "MEASUREMENT_UNITS": "%", "growth inhibition": 6}
{"COMPOUND": "NC(=S)c1c(N)n(C2OC(CO)C(O)C2O)c2ncnc(N)c12 (configuration not stated)", "MEASUREMENT_UNITS": "%", "growth inhibition": -3.15}
{"COMPOUND": "ClCc1cccc2c(CCl)cccc12", "MEASUREMENT_UNITS": "%", "growth inhibition": 33}
{"COMPOUND": "COc1ccc(Nc2cc(Cl)ccc2C(=O)O)cn1", "MEASUREMENT_UNITS": "%", "growth inhibition": 17.9}
{"COMPOUND": "C=CCS(C)(=O)=O", "MEASUREMENT_UNITS": "%", "growth inhibition": 5.7}
{"COMPOUND": "CCOc1ccc(C(=O)NCC(C)C)cc1", "MEASUREMENT_UNITS": "%", "growth inhibition": -14.1}
{"COMPOUND": "CCCCNC(=O)c1ccc(OCC)cc1", "MEASUREMENT_UNITS": "%", "growth inhibition": -16.4}
{"COMPOUND": "O=C(O)Cc1ccc(Cl)cc1", "MEASUREMENT_UNITS": "%", "growth inhibition": 3.65}
{"COMPOUND": "CN(C)c1ccc2c(N(C)C)cc(N(C)C)nc2c1", "MEASUREMENT_UNITS": "%", "growth inhibition": 20.4}
{"COMPOUND": "O=C(Nc1c(Cl)cc(Cl)cc1Cl)ON=C1CCCCC1", "MEASUREMENT_UNITS": "%", "growth inhibition": 12.9}
{"COMPOUND": "CC(CO)(CO)C(=O)O", "MEASUREMENT_UNITS": "%", "growth inhibition": 21.3}
{"COMPOUND": "CCCOCc1cn[nH]n1", "MEASUREMENT_UNITS": "%", "growth inhibition": -8.85}
{"COMPOUND": "CC(C)C(=O)OCCOc1ccc(C(C)(C)C)cc1", "MEASUREMENT_UNITS": "%", "growth inhibition": -5.2}
{"COMPOUND": "NCC(O)C(O)C(O)C(O)CO (configuration not stated)", "MEASUREMENT_UNITS": "%", "growth inhibition": 23.2}
{"COMPOUND": "CN=S(=O)(OCCCCCOS(=O)(=NC)c1ccc(C)cc1)c1ccc(C)cc1 (configuration not stated)", "MEASUREMENT_UNITS": "%", "growth inhibition": -43.4}
{"COMPOUND": "CCOC(=O)CSCCC#N", "MEASUREMENT_UNITS": "%", "growth inhibition": -7.9}
{"COMPOUND": "O=C(OC1CCCC1)c1ccccc1Cl", "MEASUREMENT_UNITS": "%", "growth inhibition": -21.7}
{"COMPOUND": "NC(CSSCC(N)C(=O)O)C(=O)O (configuration not stated)", "MEASUREMENT_UNITS": "%", "growth inhibition": 4}
{"COMPOUND": "N#CC1(O)CCCCC1", "MEASUREMENT_UNITS": "%", "growth inhibition": 23.2}
{"COMPOUND": "O=C(NCc1ccccc1)c1cccc([N+](=O)[O-])c1", "MEASUREMENT_UNITS": "%", "growth inhibition": -47}
{"COMPOUND": "CC(=O)OC/C(C)=C\\CC(C)COC(C)=O (configuration not stated)", "MEASUREMENT_UNITS": "%", "growth inhibition": 2.4}
{"COMPOUND": "Nc1nc2nnc(-c3ccccc3)c(-c3ccccc3)n2n1", "MEASUREMENT_UNITS": "%", "growth inhibition": 13.8}
